Target: Cytochrome P450 2D6 (Homo sapiens) (UniProt P10635)
Sequence (P10635 whole entry, looked up): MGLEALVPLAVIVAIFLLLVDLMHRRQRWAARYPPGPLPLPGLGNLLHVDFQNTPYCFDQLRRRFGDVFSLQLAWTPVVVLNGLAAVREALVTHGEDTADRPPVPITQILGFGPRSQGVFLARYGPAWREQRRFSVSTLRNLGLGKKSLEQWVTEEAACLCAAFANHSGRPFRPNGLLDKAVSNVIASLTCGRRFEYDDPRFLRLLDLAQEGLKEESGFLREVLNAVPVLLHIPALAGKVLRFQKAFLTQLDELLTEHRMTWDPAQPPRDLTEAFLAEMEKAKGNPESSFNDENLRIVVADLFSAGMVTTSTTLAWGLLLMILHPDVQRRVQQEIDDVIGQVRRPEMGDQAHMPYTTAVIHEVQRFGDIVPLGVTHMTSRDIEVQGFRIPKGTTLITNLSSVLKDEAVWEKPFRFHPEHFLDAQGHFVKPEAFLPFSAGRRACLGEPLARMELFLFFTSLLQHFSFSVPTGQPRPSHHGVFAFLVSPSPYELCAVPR
Experiment: Cytochrome panel assay with activity outcomes
Conditions: recombinant CYP, pro-luciferin dealkylation, luminescence, p450-cyp2d6; series mostly up to 57.1 µM
Hit rate of the full screen: of about 16,000 compounds, about 2,600 (16%) were called active. About 20% were inconclusive and are not listed. Calls come from the whole dose curve; as a rule, active = well fitted curve in the direction sought with a large enough effect; inconclusive = small, poorly fitted or top-dose-only effect, or effect the other way; inactive = no such curve, though single readings can be large or run the other way. These entries were drawn from the full list.
Valid outcomes are listed here; reply with one: True for active, False for inactive

// known answers, use as guide
>>> print(df.to_string())
                           structure_smiles  group_label
0      FC(F)(F)c1nnc(-c2ccccc2)nc1Sc1ccccc1        False
1  COc1ccc2nc3c(c([Si](C)(C)C(C)(C)C)c2c1)Cn1c-3cccc1=O         True
2  COc1ccc(CCNC(=O)c2ccccc2NC(=O)c2ccco2)cc1OC        False

# input for lookup
Answer briefly: the call reported for COc1ccc(-c2cnnn2-c2ccc(NC(=O)c3ccco3)cc2)cc1OC in this assay.
True

----------
Biological target: Cytochrome P450 2D6 (Homo sapiens) (UniProt P10635)
Test: Cytochrome panel assay with activity outcomes
Settings: recombinant CYP, pro-luciferin dealkylation, luminescence, p450-cyp2d6; series mostly up to 57.1 µM
The whole screen tested about 16,000 compounds, of which about 2,600 (16%) were called active. Inconclusive results (about 20%) are left out. The call rests on the fitted dose curve; in most records, active means well fitted curve in the direction sought with a large enough effect; inconclusive means small, poorly fitted or top-dose-only effect, or effect the other way; inactive means no such curve, though single readings can be large or run the other way. A selection follows.
Choose one outcome from this list and give only that: true (1) (active), false (0) (inactive)

>>> print(df.to_string())
                                   molecule  group_label
0        Cc1nc2nc(-c3ccc(Cl)cc3)nn2c(C)c1Cl    false (0)
1         S=C(NCCSCc1ccc(Cl)cc1Cl)Nc1ccccc1     true (1)
2  CC(C)c1ccc(NC(=O)N(CCc2nc3ccccc3[nH]2)C2CCCC2)cc1     true (1)
3  CC(=O)NS(=O)(=O)c1ccc(NC(=S)NC(=O)c2ccco2)cc1    false (0)
4  Cc1ccc(SC(C)C(=O)NCc2cccnc2)cc1 (stereo unspecified)    false (0)

Dear colleague, could you share the recorded outcome for O=C(Cc1ccccc1)NCCSCc1ccc(Cl)cc1 when you have a moment?
true (1)

Please let me know the test result on file for CC(=O)OC[C@H]1O[C@@H](O/N=C(\C)CCN2CCCCc3nc(C)c(C)cc32)[C@H](OC(C)=O)[C@@H](OC(C)=O)[C@H]1OC(C)=O .
true (1)

----------
Target: Cytochrome P450 2D6 (Homo sapiens)
Assay: Cytochrome panel assay with activity outcomes
Conditions: recombinant CYP, pro-luciferin dealkylation, luminescence, p450-cyp2d6; series mostly up to 57.1 µM
Hit rate of the full screen: of about 16,000 compounds, about 2,600 (16%) were called active. Another 20% or so got no clear call; they are omitted. Calls follow the shape of the dose curve; as a rule, active = well fitted curve in the direction sought with a large enough effect; inconclusive = small, poorly fitted or top-dose-only effect, or effect the other way; inactive = no such curve, though single readings can be large or run the other way. These entries were drawn from the full list.
Outcome field: choose from TRUE for active, FALSE for inactive

>>> df
                                   compound  group_label
0  FC(F)(F)c1nc2ccccc2nc1N/N=C/c1ccc(Cl)cc1         TRUE
1               CC1(C)CC(=O)c2cn3ncnc3nc2C1        FALSE
2  CCOc1c(OC(C)=O)ccc(/C=C2\N=C(SCC)SC2=O)c1[N+](=O)[O-]         TRUE
3  CCOC(=O)N1CCC(NC(=O)CCC(=O)N2CCOc3ccccc32)CC1        FALSE
4  O=C(NCC1CCCO1)/C(=C\c1ccco1)NC(=O)c1ccccc1 (stereo not drawn)        FALSE

Which outcome did this test record for the compound OC[C@@H]1O[C@@H](n2cnc3cncnc32)[C@@H](O)[C@H]1O ?
FALSE

Hi, sorry to bother you, what did the test record for N#CCCn1c(=O)c(-c2ccccc2)nc2cnc(OCc3ccccc3)nc21 ?
FALSE

Returns: the outcome recorded for C=C[C@@]1(C)CC(=O)[C@@]2(O)[C@@]3(C)[C@@H](O)CCC(C)(C)[C@@H]3[C@H](O)[C@H](OC(C)=O)[C@@]2(C)O1 in this assay.
FALSE

----------
Target: Cytochrome P450 2D6 (Homo sapiens) (UniProt P10635)
Experiment: Cytochrome panel assay with activity outcomes
Settings: recombinant CYP, pro-luciferin dealkylation, luminescence, p450-cyp2d6; series mostly up to 57.1 µM
Method: The P450 gene superfamily is involved in the metabolism and clearance of xenobiotics. This assay used various human CYP P450 isozymes to measure the dealkylation of various pro-luciferin substrates to luciferin. The luciferin is then measured by luminescence after the addition of a luciferase detection reagent. […] Inhibitors and some substrates limit the production of luciferin, and decrease measured luminescence. […] 8, Detection, 1 sec, ViewLux luminescent read […]
The campaign covered roughly 16,000 compounds. About 2,600 (16%) were called active. Roughly 20% stayed inconclusive and do not appear here. The call rests on the fitted dose curve; in most records, active means well fitted curve in the direction sought with a large enough effect; inconclusive means small, poorly fitted or top-dose-only effect, or effect the other way; inactive means no such curve, though single readings can be large or run the other way. Not all results are given here.
Give one outcome, nothing more. List: TRUE for active, FALSE for inactive

// known answers, use as guide
>>> print(df.to_string())
                                   compound  group_label
0  Cc1cc(=O)[nH]c2c1c(C)nn2C1CCOC(C)(C)C1 (stereo not drawn)        FALSE
1  COCCn1c(=O)c(-c2ccccc2)nc2cnc(Oc3cccc(Cl)c3)nc21        FALSE
2      COc1ccc(-c2nc3cnc(OC)nc3n(C)c2=O)cc1        FALSE
3  CCc1ccccc1OC[C@@H](O)CN[C@H]1CCCc2ccccc21        FALSE
4  CN1CCc2ccccc2[C@@H]1Cc1ccccc1NC(=O)c1sc2ccccc2c1Cl         TRUE

// outcome(item) with item = Cc1noc(NS(=O)(=O)c2ccc(NC(=O)c3ccc(Br)o3)cc2)c1C
FALSE

Each compound tested received a call. Report the one for COc1ccc(Sc2ccc(NC(=O)c3ccccc3Cl)cc2C#N)cc1 .
FALSE

Please share the test call associated with c1cncc(-c2ccc3ncnc(NC4CCNCC4)c3c2)c1 .
FALSE

I'd appreciate the recorded outcome for CC(=O)N(C[C@@H](C)C(=O)O)c1c(I)cc(I)c(N)c1I from this test.
FALSE

Just curious, what result did CCCCSc1nc(C)cc(C)c1S(=O)(=O)c1ccccc1C get here?
FALSE

----------
Target: Cytochrome P450 2D6 (Homo sapiens) (UniProt P10635)
Assay: Cytochrome panel assay with activity outcomes
Conditions: recombinant CYP, pro-luciferin dealkylation, luminescence, p450-cyp2d6; series mostly up to 57.1 µM
Among all 16,000 compounds or so, about 2,600 (16%) were called active. Not shown: some 20% with an inconclusive outcome. Calls follow the shape of the dose curve; as a rule, active = well fitted curve in the direction sought with a large enough effect; inconclusive = small, poorly fitted or top-dose-only effect, or effect the other way; inactive = no such curve, though single readings can be large or run the other way. These entries were drawn from the full list.
Outcome (select one): label 1 = active, label 0 = inactive

Please review the entries below; each comes with its answer.
>>> print(df.to_string())
                                   compound  group_label
0       CCCc1nnc(NC(=O)Cn2cnc3ccccc3c2=O)s1      label 0
1               COc1ncc2ncc(=O)n(CCC#N)c2n1      label 0
2           Cc1nc2cnc(Oc3ccccc3)nc2n(C)c1=O      label 0
3  CCCCN(C(=O)NC(=O)Nc1ccccc1OCC)S(C)(=O)=O      label 0
4         N#CCCn1c(=O)cnc2cnc(N3CCOCC3)nc21      label 0

Please state the recorded outcome for this compound: O=C(CCn1nc(-c2ccc(Cl)cc2)ccc1=O)NCc1ccccn1
label 0

----------
Target: Cytochrome P450 2D6 (Homo sapiens) (UniProt P10635)
Assay: Cytochrome panel assay with activity outcomes
Settings: recombinant CYP, pro-luciferin dealkylation, luminescence, p450-cyp2d6; series mostly up to 57.1 µM
The campaign covered roughly 16,000 compounds. About 2,600 (16%) were called active. Roughly 20% stayed inconclusive and do not appear here. Calls follow the shape of the dose curve; as a rule, active = well fitted curve in the direction sought with a large enough effect; inconclusive = small, poorly fitted or top-dose-only effect, or effect the other way; inactive = no such curve, though single readings can be large or run the other way. The list is a sample of the results.
Reply using exactly one outcome from active, inactive

Solved entries (count: 8):
In [3]: df
Out[3]:
                                   compound  group_label
0  CC1(C)N=C(N)N=C(N)N1c1cccc(CSc2ccccc2)c1       active
1  COc1ccccc1CNC(=O)CCCn1c(=O)c2ccccc2n(CC(=O)NC2CCCC2)c1=O     inactive
2  O=C1C2CCC(C(O)C2)N1Cc1ccccc1 (configuration not stated)     inactive
3  Cc1cc(C(=O)Nc2ccc(N3CCOCC3)cc2)c2ccccc2n1       active
4  Cc1cc(C)cc(NC(=O)N2CCCC2C(=O)Nc2ccc(-n3cnnn3)c(C)c2)c1 (configuration not stated)     inactive
5  COCc1c(C(=O)OCC(=O)N2c3ccccc3NC(=O)C2(C)C)oc2ccccc12     inactive
6                       c1cncc(-c2cccnc2)c1     inactive
7  OCC1CCCN(Cc2ccc(-c3ccccc3)cc2)C1 (configuration not stated)       active

I would be grateful if you could indicate the recorded call for CN(C)c1ccc(-c2cc(-n3ccnc3)ncn2)cc1 .
active

Can you look up the reported call for CN1CCN(c2cc(-c3ccc(N(C)C)cc3)ncn2)CC1 for me?
inactive

Please let me know the test result on file for CCCC(O)(CCC)C(=O)NN1CCCCC1 .
inactive

GET /call?item= COC(=O)CSc1ncc(OC)c(OC)n1 returns the recorded outcome of this test.
inactive
